# maps each entry to its Mean survival time
Tested on: leukemia P388 cells
Assay procedure: Antitumor activity: life span-prolonging effect in mouse leukemia
Assay type: in vivo, BDF1 mice
Condition: 3 mg/kg intraperitoneally, day after i.p. injection of 1×10^6 P388 cells; BDF1 mice; untreated control 9.3 ± 0.8 days

Molecule: COc1cc2oc3c(c(=O)c2cc1OC)C(=O)c1c(ccc2cc4c(c(OC(C)=O)c12)C(=O)N1CCOC1(C)C4)C3=O (stereo not shown)
Tested target: leukemia P388 cells
Quantity unit: days
Mean survival time: 14.2
--
Molecule: COc1cc2oc3c(c(=O)c2cc1O)C(=O)c1c(ccc2cc4c(c(O)c12)C(=O)N1CCOC1(C)C4)C3=O (stereo not shown)
Tested target: leukemia P388 cells
Quantity unit: days
Mean survival time: 18.0
--
Molecule: COc1cc2oc3c(c(=O)c2cc1OC)C(=O)c1c(ccc2cc4c(c(O)c12)C(=O)N1CCOC1(C)C4)C3=O (stereo not shown)
Tested target: leukemia P388 cells
Quantity unit: days
Mean survival time: 15.2
--
Molecule: COc1cc2oc3c(c(=O)c2cc1OC(C)=O)C(=O)c1c(ccc2cc4c(c(OC(C)=O)c12)C(=O)N1CCOC1(C)C4)C3=O (stereo not shown)
Tested target: leukemia P388 cells
Quantity unit: days
Mean survival time: 14.8

Every entry's value here was drawn from patent US4866069A.
